Target Under Test: G/T mismatch-specific thymine DNA glycosylase (Homo sapiens) (UniProt Q13569);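 note: human TDG cleavage of quenched duplex DNA oligonucleotides coupled to APE1, strand release read as fluorescence at 594 nm, inhibition of TDG activity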
Sequence (Q13569 whole entry): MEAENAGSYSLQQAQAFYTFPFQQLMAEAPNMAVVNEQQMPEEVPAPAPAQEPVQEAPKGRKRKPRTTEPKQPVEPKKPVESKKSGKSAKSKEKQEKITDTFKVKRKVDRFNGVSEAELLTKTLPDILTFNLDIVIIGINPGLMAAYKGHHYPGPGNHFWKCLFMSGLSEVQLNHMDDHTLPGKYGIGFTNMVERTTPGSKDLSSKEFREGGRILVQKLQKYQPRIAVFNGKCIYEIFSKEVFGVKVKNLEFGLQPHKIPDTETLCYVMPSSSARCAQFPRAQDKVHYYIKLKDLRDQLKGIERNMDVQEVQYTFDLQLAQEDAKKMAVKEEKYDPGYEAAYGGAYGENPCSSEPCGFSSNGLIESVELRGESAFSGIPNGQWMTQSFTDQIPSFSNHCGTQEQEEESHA
Experimental Conditions: Compound Concentration 1.0 uM, Hit No
Description: Inhibition of TDG by quantifying inhibition of TDG-mediated cleavage and dissociation of quenched duplex DNA oligonucleotides, measured as fluorescence at 594 nm. To generate a functional strand incision and increase turn-over this assay is coupled to APE1.
# cutoff 50% applies to inhibition; >= gives met, < gives not met

# input Decide: is the reported value of inhibition for CCc1ccccc1C(=O)Nc1n[nH]c2c(C)c(F)c(C3C(C#N)=C(C)N(C)C(C)=C3C#N)cc12 equal to or greater than 50%?
# output not met

# input Dear colleague, could you confirm whether CC(=O)Nc1cccc(-n2c(=O)n(C3CC3)c(=O)c3c(Nc4ccc(I)cc4F)n(C)c(=O)c(C)c32)c1 has inhibition at or above 50%?
# output not met

# input Is reported inhibition greater than or equal to 50% here: C[C@@H]1CN(c2cc(-c3n[nH]c4ccc(OC5(C)CC5)cc34)ncn2)C[C@H](C)O1
# output not met

# input Decide: is the reported value of inhibition for O=C(Nc1ccc(-c2ccnc(Nc3ccc(N4CCOCC4)cc3)n2)cc1)[C@@H]1CCCN1 equal to or greater than 50%?
# output met

# input Decide: inhibition of CN(C)C(=O)Cn1cc(-c2ccc(-c3cncc4ccccc34)cc2)cn1 >= 50%?
# output not met

# input Could you tell me if the measured inhibition of COc1c(OCCCN2CCOCC2)ccc2c1N=C(NC(=O)c1cnc(N)nc1)N1CCN=C21 reaches 50% or more?
# output not met

# input Is it the case that COc1cc2ncn(-c3cc(OCc4ccccc4C(F)(F)F)c(C(N)=O)s3)c2cc1OC has inhibition reaching or exceeding 50%?
# output not met

# input Is it the case that O=C(Cc1ccccc1)Nc1nnc(N2C[C@H]3C[C@@H]2CN3c2cccnn2)s1 has inhibition reaching or exceeding 50%?
# output not met

# input Confirm if inhibition reported for the compound Nc1c(C(=O)NCc2ccc(C(=O)NCCCC3CCCCC3)cc2)cnn1-c1ccccc1 is 50% or above.
# output not met

# input Evaluate NC(=O)c1ccc2nc(-c3ccc(C4(N)CCC4)cc3)c(-c3ccccc3)n2n1 : inhibition at minimum 50%?
# output met

# input Is inhibition at least 50%? Consider CN(c1ccnc(CNc2nc(Nc3ccc4c(c3)CC(=O)N4)ncc2C(F)(F)F)n1)S(C)(=O)=O
# output met

# input Tell me whether inhibition is at least 50% here: CN(C)CC#Cc1ccc2[nH]c3c(c2c1)-c1nc(N)ncc1CCC3
# output not met

# input Item COc1ccccc1Nc1nc(-c2nn(Cc3c(F)cc(OCCCO)cc3F)c3ccccc23)ncc1OC with inhibition of 50% or above?
# output not met

# input For this compound, is measured inhibition 50% or higher? CNc1nc(Nc2cnn([C@H]3CCN(C4COC4)C[C@@H]3F)c2Cl)ncc1C(F)(F)F
# output not met

# input Hi team, for CN1C(=O)c2sccc2N(C)c2nc(Nc3ccc(S(N)(=O)=O)cc3)ncc21 , is the recorded inhibition at or above 50%?
# output not met

# input Evaluate O=C(Nc1ccc(-n2nc(-c3cccnc3)cc2C(F)(F)F)cn1)c1ccc(-c2ccccc2)c(F)c1 : inhibition at minimum 50%?
# output met

# input Is it the case that CC(C)c1cc(Nc2nc(N3CCC[C@H](N)C3)ncc2C(N)=O)cc(C(C)C)n1 has inhibition reaching or exceeding 50%?
# output not met

----------
Target Under Test: Endonuclease 8-like 2 (Homo sapiens) (UniProt Q969S2);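 note: fluorescence at 594 nm reports NEIL2 cutting and release of a quenched double-stranded DNA oligo substrate, reduced signal read as inhibition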
Sequence (Q969S2 whole entry): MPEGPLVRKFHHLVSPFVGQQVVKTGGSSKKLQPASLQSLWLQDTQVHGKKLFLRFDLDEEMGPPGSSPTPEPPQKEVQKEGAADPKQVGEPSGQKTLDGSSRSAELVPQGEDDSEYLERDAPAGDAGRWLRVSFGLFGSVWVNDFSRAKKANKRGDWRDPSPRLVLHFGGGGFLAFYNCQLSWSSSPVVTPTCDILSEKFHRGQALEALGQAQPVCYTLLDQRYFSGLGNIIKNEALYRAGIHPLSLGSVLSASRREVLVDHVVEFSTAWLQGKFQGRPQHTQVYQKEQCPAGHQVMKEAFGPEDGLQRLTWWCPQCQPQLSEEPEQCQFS
Experimental Conditions: Compound Concentration 10.0 uM, Hit No
Description: Inhibition of NEIL2 by quantifying inhibition of NEIL2-mediated cleavage and dissociation of quenched duplex DNA oligonucleotides, measured as fluorescence at 594 nm.
What inhibition was measured for each of the following?
Note: unit % is implicit; provide only the numeric part.

# input Any idea what inhibition was measured for COc1cc(NC(=O)CCN2CCC(OC(=O)Nc3ccccc3-c3ccccc3)CC2)c(Cl)cc1CNC[C@H](O)c1ccc(O)c2[nH]c(=O)ccc12 ?
# output -2.98

# input Fill in: inhibition of COc1ccc(NC(=O)c2ccc(-c3ccc(-c4noc(C)n4)cc3C)cc2)cc1OCCN(C)C is ___
# output -1.11

# input I have this molecule here, CCCc1nc2c(C)cc(-c3nc4ccccc4n3C)cc2n1Cc1ccc(-c2ccccc2C(=O)O)cc1 , and I need its recorded inhibition.
# output 15.5

# input Return reported inhibition; argument: CN1CCC(C(=O)c2cccc(NC(=O)c3c(F)cc(F)cc3F)n2)CC1
# output -1.73

# input Need inhibition, item CO[C@H]1/C=C/O[C@@]2(C)Oc3c(C)c(O)c4c(O)c(c(/C=N/N5CCN(C)CC5)c(O)c4c3C2=O)NC(=O)/C(C)=C\C=C\[C@H](C)[C@H](O)[C@@H](C)[C@@H](O)[C@@H](C)[C@H](OC(C)=O)[C@@H]1C
# output -0.744

# input Item under review: Cc1ccccc1-c1cc(N2CCN(C)CC2)ncc1N(C)C(=O)C(C)(C)c1cc(C(F)(F)F)cc(C(F)(F)F)c1 . Reported inhibition?
# output 1.76

# input Can you look up the measured inhibition of Cc1cc(OCC(=O)O)cc(C)c1Cc1ccc(O)c(C(C)C)c1 for me?
# output 4.61

# input Look up inhibition for this molecule: CCCCC#Cc1nc(NC)c2ncn([C@@H]3O[C@H](CO)[C@@H](O)[C@H]3O)c2n1
# output 5.51

# input # inhibition lookup, item CC1(C)SSC(C)(C)[C@@H](NC(=O)[C@@H](N)Cc2ccc(O)cc2)C(=O)NCC(=O)N[C@@H](Cc2ccccc2)C(=O)N[C@H]1C(=O)O
# output 9.5

# input Request the reported inhibition associated with CCCCCCCC/C=C\CCCCCCCC(N)=O
# output 2.51

# input Using the record for N#Cc1cc(F)cc(-c2nc(-c3ccc(F)cn3)no2)c1 , report its inhibition.
# output -9.52

# input Name the reported inhibition value associated with the molecule Cc1ccc(OCC(O)C(C)NC(C)C)c2c1CCC2 (stereo unspecified)
# output -0.983

# input Using the record for O=C(Nc1cnc(Oc2ccc(F)cc2)nc1)N1CCc2ncccc2[C@@H]1c1ccc(F)cc1 , report its inhibition.
# output -3.04

# input // query inhibition value for entry COc1ccc(COc2ccc(Cc3cnc(N)nc3N)cc2OC)cc1
# output -2.46

# input Given the entry CO[C@@H](C)c1c(Nc2ccc([C@H](N(C)C(=O)C3CCS(=O)(=O)CC3)C(F)(F)F)cc2)cnc2cc(Cl)nn12 , report its measured inhibition.
# output 5.63

# input Fill in: inhibition of CC1=C(C#N)C(c2ccc3[nH]nc(C)c3c2)C(C#N)=C(C)N1 is ___
# output 1.25

# input Look up inhibition for this molecule: CN(C)CCOc1ccc(-c2nc(-c3ccncc3)c(-c3ccc4c(c3)CC/C4=N\O)[nH]2)cc1
# output 26.4

# input Which inhibition value is on record for O=C(NCCCN1CCOC1=O)c1cnc(NCc2cc(Br)ccc2Br)nc1NC1CCCC1 ?
# output 8.58

# input Item under review: CC[C@H](CO)Nc1nc(NCc2ccccc2)c2ncn(C(C)C)c2n1 . Reported inhibition?
# output -5.42

# input Any idea what its inhibition is? The molecule is Cc1cc(C)c(N)c(C#Cc2cccc(F)c2)n1
# output 5.26

# input I would be grateful if you could share the reported inhibition for C[C@@H]1CN(c2nccc(Nc3ccc4c(c3)n(CCC(C)(C)O)c(=O)n4C)n2)C[C@H](C)C1(F)F .
# output -8.14

# input Form field: reported inhibition of Cc1csc2c(N[C@@H](C)CN3CCN(S(=O)(=O)c4ccc(Cl)c(Cl)c4)CC3)ncnc12
# output -5.22

# input Item Cc1cn([C@@H](C)CC#N)c(=O)c2cc(Cn3nc(C(F)F)cc3Cl)nn12 has what recorded inhibition?
# output 0.0213

# input Item under review: Cc1ccc2nc(CNCCCOc3ccccc3)cc(O)c2c1 . Reported inhibition?
# output -8.14

# input Would you kindly share the measured inhibition for C[C@@H](CN1CCC(Cc2ccccc2)CC1)[C@@H](O)c1ccc(O)cc1 ?
# output 2.2

# input Looking for the measured inhibition of Cc1c(C2=CCN(C(=O)N(C)C(C)C)CC2)nnn1-c1cccnc1F , can you help?
# output 9

# input Form field: reported inhibition of O=C1O[C@]2(CC[C@H](C(=O)Nc3ccn(-c4ccccc4F)n3)CC2)c2cnccc21
# output -7.47

# input Recorded inhibition of CCOC(=O)Nc1ccc2c(c1)N(C(=O)CN(CC)CC)c1ccccc1CC2 , please.
# output -9.67

# input Reported inhibition, molecule CC[C@@H](C)Nc1nc(C)nc2c(-c3ccc(OC)nc3C)c(C)nn12 : ____
# output 2.26

# input Returns the measured inhibition for the input molecule. Input: CN(C)S(=O)(=O)c1ccc(NC(=S)N2CCC(C(O)(c3ccccc3)c3ccccc3)CC2)cc1
# output 0.265

# input Can you look up the measured inhibition of CN(C)c1ccnc2sc3c(=O)n(N4CCCCCC4)cnc3c12 for me?
# output 16
